experiment: in vivo; conditions: Sprague-Dawley, rat, po, 5 mg/kg
Measured quantity: Tmax at 24 h (h)
Give the value in h but do not write h after it.

Notebook: Cc1nsc(-c2nnc3n2CCN(C(=O)c2ccc(F)cc2)[C@@H]3C)n1 , Tmax at 24 h read as 1.83

###

assay: in vivo; conditions: Sprague-Dawley, rat, po, 5 mg/kg
Measured quantity: half-life at 24 h (h)
The reply should contain only the number, in h.

What the record says about Cc1nsc(-c2nnc3n2CCN(C(=O)c2ccc(F)cc2)[C@@H]3C)n1 : half-life at 24 h is 3.72

###

assay: in vivo; settings: Sprague-Dawley, rat, iv, 1 mg/kg
Measured quantity: Vd at 24 h
# include the unit after the value

Query Cc1nsc(-c2nnc3n2CCN(C(=O)c2ccc(F)cc2)[C@@H]3C)n1 yields Vd at 24 h of 0.751 L/kg

###

test: in vivo; conditions: Sprague-Dawley, rat, brain, po, 5 mg/kg
Measured quantity: concentration at 1 h (ng/g)
Field format: number, assumed ng/g, no unit text.

Quick note, concentration at 1 h for Cc1nsc(-c2nnc3n2CCN(C(=O)c2ccc(F)cc2)[C@@H]3C)n1 landed at 1020

###

assay: in vivo; settings: Sprague-Dawley, rat, iv, 1 mg/kg
Measured quantity: clearance at 24 h (mL/min/kg)
// return numeric value only (unit: mL/min/kg, not printed)

clearance at 24 h recorded for this molecule, Cc1nsc(-c2nnc3n2CCN(C(=O)c2ccc(F)cc2)[C@@H]3C)n1 , is 2.93

###

experiment: in vivo; conditions: Sprague-Dawley, rat, brain, po, 5 mg/kg
Measured quantity: concentration at 10 h (ng/g)
Use ng/g as the unit, but write only the number.

Lab note: Cc1nsc(-c2nnc3n2CCN(C(=O)c2ccc(F)cc2)[C@@H]3C)n1 gave concentration at 10 h of 297

###

assay: in vitro; settings: human, liver microsomes
Measured quantity: CLint scaled at 0.25 h

Per the record, Cc1nsc(-c2nnc3n2CCN(C(=O)c2ccc(F)cc2)[C@@H]3C)n1 [FEZOLINETANT] has CLint scaled at 0.25 h of < 13.5 mL/min/kg

###

test: in vivo; settings: Sprague-Dawley, rat, po, 5 mg/kg
Measured quantity: AUC(0-t) at 24 h (µg·h/mL)
Record the value in µg·h/mL, omitting the unit from your answer.

Consider Cc1nsc(-c2nnc3n2CCN(C(=O)c2ccc(F)cc2)[C@@H]3C)n1 . Its measured AUC(0-t) at 24 h is 31.6

###

test: in vivo; conditions: Sprague-Dawley, rat, iv, 1 mg/kg
Measured quantity: AUC(0-t) at 24 h (ng·h/mL)
Give the value, in units of ng·h/mL, as a plain number.

// Cc1nsc(-c2nnc3n2CCN(C(=O)c2ccc(F)cc2)[C@@H]3C)n1 : AUC(0-t) at 24 h value = 5590

###

experiment: in vivo; details: Sprague-Dawley, rat, liver, po, 5 mg/kg
Measured quantity: concentration at 1 h (ng/g)
Your answer is read as ng/g, so omit the unit and give the number.

The compound Cc1nsc(-c2nnc3n2CCN(C(=O)c2ccc(F)cc2)[C@@H]3C)n1 [FEZOLINETANT] showed concentration at 1 h equal to 12100

###

experiment: in vivo; conditions: Sprague-Dawley, rat, iv, 1 mg/kg
Measured quantity: half-life at 24 h (h)
Kindly answer with a numeric value in h, unit omitted.

// recorded half-life at 24 h for Cc1nsc(-c2nnc3n2CCN(C(=O)c2ccc(F)cc2)[C@@H]3C)n1 : 2.94
